TARGET ENTITY: FL-SMARCA2 (full-length human SMARCA2 isoform 1) (Homo sapiens)
Construct: FLAG tag (YKDDDDK) (C); made in house; host or cells: Sf21 insect cells (baculovirus, pFastBacI)
Sequence (P51531 with tags, fused parts or gaps): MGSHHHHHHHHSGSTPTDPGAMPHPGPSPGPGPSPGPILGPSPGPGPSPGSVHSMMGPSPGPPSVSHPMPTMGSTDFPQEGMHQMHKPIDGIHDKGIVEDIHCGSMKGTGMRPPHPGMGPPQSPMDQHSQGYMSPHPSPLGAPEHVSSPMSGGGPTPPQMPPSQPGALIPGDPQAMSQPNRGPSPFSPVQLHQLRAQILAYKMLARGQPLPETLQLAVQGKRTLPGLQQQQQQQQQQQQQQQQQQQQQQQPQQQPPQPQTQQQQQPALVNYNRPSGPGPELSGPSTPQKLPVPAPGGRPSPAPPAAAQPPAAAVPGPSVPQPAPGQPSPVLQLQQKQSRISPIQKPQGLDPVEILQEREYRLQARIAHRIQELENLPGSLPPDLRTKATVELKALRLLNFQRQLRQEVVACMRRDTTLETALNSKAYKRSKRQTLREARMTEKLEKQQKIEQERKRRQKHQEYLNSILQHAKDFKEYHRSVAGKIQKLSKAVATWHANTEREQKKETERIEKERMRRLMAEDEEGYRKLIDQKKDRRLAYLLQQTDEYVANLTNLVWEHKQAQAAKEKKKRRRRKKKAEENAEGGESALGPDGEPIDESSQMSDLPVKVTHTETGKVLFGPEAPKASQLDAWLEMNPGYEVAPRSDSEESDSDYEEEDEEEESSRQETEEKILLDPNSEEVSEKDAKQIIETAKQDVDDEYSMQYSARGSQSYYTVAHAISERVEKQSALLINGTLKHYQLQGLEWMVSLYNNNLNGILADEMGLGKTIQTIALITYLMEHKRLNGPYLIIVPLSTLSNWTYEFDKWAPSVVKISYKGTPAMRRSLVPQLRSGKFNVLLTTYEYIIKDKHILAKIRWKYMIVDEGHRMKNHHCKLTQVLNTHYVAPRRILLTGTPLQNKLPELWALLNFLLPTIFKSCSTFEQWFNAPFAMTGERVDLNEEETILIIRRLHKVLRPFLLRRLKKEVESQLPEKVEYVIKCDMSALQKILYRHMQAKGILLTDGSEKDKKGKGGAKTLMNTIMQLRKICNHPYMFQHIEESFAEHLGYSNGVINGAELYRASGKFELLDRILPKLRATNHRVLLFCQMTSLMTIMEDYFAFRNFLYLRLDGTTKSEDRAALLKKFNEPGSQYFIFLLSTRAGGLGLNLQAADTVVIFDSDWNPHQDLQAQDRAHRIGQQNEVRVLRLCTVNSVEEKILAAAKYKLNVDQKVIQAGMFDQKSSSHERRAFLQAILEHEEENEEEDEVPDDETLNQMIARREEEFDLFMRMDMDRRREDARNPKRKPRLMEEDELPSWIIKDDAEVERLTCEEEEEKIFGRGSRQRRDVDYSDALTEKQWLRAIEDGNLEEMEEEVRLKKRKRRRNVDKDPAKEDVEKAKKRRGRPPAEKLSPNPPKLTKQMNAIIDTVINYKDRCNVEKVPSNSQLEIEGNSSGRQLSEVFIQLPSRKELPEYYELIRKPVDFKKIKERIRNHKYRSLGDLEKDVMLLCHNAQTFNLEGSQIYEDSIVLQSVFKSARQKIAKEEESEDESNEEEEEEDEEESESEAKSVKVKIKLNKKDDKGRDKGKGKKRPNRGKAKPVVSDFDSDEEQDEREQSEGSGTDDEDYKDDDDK
METHOD: SMARCA2 ATPase activity assay (ADP-Glo, chicken mononucleosome substrate)
Format: biochemical
PARTICULARS: Table 3c.1; ATPase assay, enzyme 5 nM, ATP 250 uM, chicken mononucleosome 10 nM, 30 min preincubation
pIC50: −log10 of the molar value.
MEASURED QUANTITY: pIC50

Input line: What value of pIC50 has been reported for the following compound? CN(C)C(=O)c1cccc(C#Cc2cc(C(=O)Nc3cc(F)c(=O)n(CC(F)F)c3)sc2Cl)c1 [Compound 74c]
Output line: 7.17

[P] O=C1CCC(C#Cc2cc(C(=O)Nc3cc(F)c(=O)n(CC(F)F)c3)sc2Cl)CN1 (stereo not drawn) [Compound 153c]
[Q] O=C(Nc1cc(F)c(=O)n(CC(F)F)c1)c1cc(C#Cc2cocn2)c(Cl)s1 [Compound 136c]
Input line: Lab note: check whether P or Q has the lower measured pIC50. Your answer should be the label of the entry you select.
Output line: P
(P: 6.68, Q: 7.58)

[I] O=C(O)c1cccc(C#Cc2cc(C(=O)Nc3cc(F)c(=O)n(CC(F)F)c3)sc2Cl)c1 [Compound 131c]
[II] N#Cc1cccc(C#Cc2cc(C(=O)Nc3cc(F)c(=O)n(CC(F)F)c3)sc2Cl)c1 [Compound 34c]
[III] O=C(Nc1cc(C#CCO)c(=O)n(CC(F)F)c1)c1cc(F)c(Cl)s1
[IV] NCc1nc(C#Cc2cc(C(=O)Nc3cc(F)c(=O)n(CC(F)F)c3)sc2Cl)cs1 [Compound 125c]
Input line: rank_up(items): orders items by reported pIC50 in ascending numerical order. Show the ranking through the labels, in the order asked for.
Output line: III, II, IV, I
